- target desc: Human Thrombin (Homo sapiens)
- assay text: Inhibition of the amidase activity of thrombin (Kass)
- Format: biochemical
- setup conditions: chromogenic substrate N-benzoyl-Phe-Val-Arg-p-nitroanilide; mean over range of concentrations
assay endpoint: Kass × 10^6 (L/mole) Human Thrombin

Sample answers from the record:
• CCS(=O)(=O)N[C@H](Cc1ccccc1)C(=O)N1CCC[C@H]1C(=O)NCCc1cccc(C(=N)N)c1.Cl = 0.29 × 10^6 L/mole
• Cl.N=C(N)N1CCC(CNC(=O)[C@@H]2CCCN2C(=O)[C@@H](CC2CCCCC2)NCC(=O)O)CC1 = 490 × 10^6 L/mole
• NCC1CCC(CNC(=O)[C@@H]2CCCN2C(=O)[C@@H](CC2CCCCC2)NCC(=O)O)CC1 (some centres unmarked) = 2.0 × 10^6 L/mole
• O=C(O)CN[C@H](CC1CCCCC1)C(=O)N1CCC[C@H]1C(=O)NCCCC1CCNCC1 = 0.01 × 10^6 L/mole
• Cl.Cl.N=C(N)c1ccc(CNC(=O)C2CC3CCCCC3N2C(=O)C2NCCC3CCCCC32)cc1 (centres unmarked) = 38. × 10^6 L/mole
• N=C(N)c1ccc(CNC(=O)[C@@H]2CCCN2C(=O)[C@@H](CCC2CCCCC2)NCC(=O)O)cc1 = 410 × 10^6 L/mole
• Cl.O=C(O)CN[C@H](CC1CCCCC1)C(=O)N1CCC[C@H]1C(=O)NCC1=CCNCC1 = 0.60 × 10^6 L/mole
• Cl.Nc1ccc(CCNC(=O)[C@@H]2CCCN2C(=O)[C@H](N)Cc2ccccc2)cc1 [Example 14, D-Phe-Pro-P-NHCH2 CH2 C6 H4 NH2.HCl] = 0.021 × 10^6 L/mole

Give Kass × 10^6 (L/mole) Human Thrombin for each listed item.
1. N=C(N)Nc1ccc(CNC(=O)[C@@H]2CCCN2C(=O)[C@@H]2NCC[C@@H]3CCCC[C@@H]32)cc1
2. Nc1ccc(CCNC(=O)[C@@H]2CCCN2C(=O)[C@@H](CC2CCCCC2)NCC(=O)O)cc1
3. N=C(N)Nc1ccc(CCNC(=O)[C@@H]2CCCN2C(=O)[C@@H]2NCC[C@@H]3CCCC[C@@H]32)cc1

Result:
1.1 × 10^6 L/mole
0.31 × 10^6 L/mole
0.12 × 10^6 L/mole
